Please provide measured viability at 72 h, 5.1 µM for the entries that follow.
# Protocol Details: Cytotoxicity against human HepG2 cells assessed as cell vitality at 5.1 uM after 72 hrs by trypan blue staining based assay (reference value: 1.1 +/- 0.5%)
# Setup Conditions: read-out: Activity
Give the number; % is assumed, so skip it.

Entry under review: C=C(C)[C@@H]1NC(=O)[C@H](N(C)C)[C@H](O)c2cc(Cl)c(O)c(c2)O[C@](C)(CC)[C@@H](C(=O)N2CC=C[C@H]2C(=O)N/C(C(=O)N/C(=C/C(=O)O)C(=O)O)=C(\C)CC)NC1=O . Reported viability at 72 h, 5.1 µM? 18.4

Entry C=C(C)[C@@H]1NC(=O)[C@H](NC)[C@H](O)c2cc(Cl)c(O)c(c2)O[C@](C)(CC)[C@@H](C(=O)N2CC=C[C@H]2C(=O)N/C(C(=O)N/C(=C/C(=O)O)C(=O)O)=C(\C)CC)NC1=O has what viability at 72 h, 5.1 µM? 9
